Form field: % Release of degrader after 24 h cyno (one value per entry).
experiment: BTK FAC plasma stability assay, cyno plasma; type: in vitro ADME, cynomolgus monkey; settings: 24 h

Here are 2 compounds together with their reported answers.
{"compound": "CCCCCCCCCCCN(C(=O)CCCCCCCCCC(=O)O)C(CCC(=O)NCCOCCOCCOCCOCCOCCOCCOCCOCCOCCOCCOCCOCCC(=O)NCCC(=O)OC(C)(C)c1ccc(C(=O)Nc2cc(F)cc(-c3ncnc4[nH]c(-c5ccc(CCN6CCC7(CC6)CCN(C(=O)c6ccc(OC)c(N8CCC(=O)NC8=O)c6)CC7)cc5)cc34)c2C)c(F)c1)C(=O)O (stereo not drawn) [Example A12]", "% Release of degrader after 24 h cyno": "0.5%"}
{"compound": "COc1ccc(C(=O)N2CCC3(CCN(CCc4ccc(-c5cc6c(-c7cc(F)cc(NC(=O)c8ccc(C(C)(C)OC(=O)CNC(=O)CCOCCOCCOCCOCCOCCOCCOCCOCCOCCOCCOCCOCCNC(C)=O)cc8F)c7C)ncnc6[nH]5)cc4)CC3)CC2)cc1N1CCC(=O)NC1=O [Example A33]", "% Release of degrader after 24 h cyno": "8.1%"}

Now examine the next entry.
input: Would you kindly share the measured % Release of degrader after 24 h cyno for CCCCCCCCCCCN(C(=O)CCCCCCCCCC(=O)O)C(CCC(=O)NCCOCCOCCOCCOCCOCCOCCOCCOCCOCCOCCOCCOCCC(=O)NCc1ccc(CC(=O)OC(C)(C)c2ccc(C(=O)Nc3cc(F)cc(-c4ncnc5[nH]c(-c6ccc(CCN7CCC8(CC7)CCN(C(=O)c7ccc(OC)c(N9CCC(=O)NC9=O)c7)CC8)cc6)cc45)c3C)c(F)c2)cc1)C(=O)O (stereo not drawn) [Example A23] ?
output: 0.6%

====

Assay: BTK FAC plasma stability assay, rat plasma
Format: in vitro ADME
Settings: 24 h
Description: Plasma stability was conducted in Dulbecco's PBS buffer, mouse plasma, rat plasma or human plasma frozen with K3-EDTA from BiolVT). Thawed plasma was centrifuged prior to warming for 5 minutes at 37° C. […] Semi quantitative analysis (analyte: internal standard peak area ratio) was performed by LC-MS/MS using a Sciex QTrap 5500.
Form field: % Release of degrader after 24 h rat (one value per entry).
Write the answer as a number in %, unit excluded.

{"molecule": "CCCCCCCCCCCN(C(=O)CCCCCCCCCC(=O)O)C(CCC(=O)NCCOCCOCCOCCOCCOCCOCCOCCOCCOCCOCCOCCOCCC(=O)NCc1ccc(C(=O)OC(C)(C)c2ccc(C(=O)Nc3cc(F)cc(-c4ncnc5[nH]c(-c6ccc(CCN7CCC8(CC7)CCN(C(=O)c7ccc(OC)c(N9CCC(=O)NC9=O)c7)CC8)cc6)cc45)c3C)c(F)c2)cn1)C(=O)O (stereo not drawn)", "unit-text": "%", "numeric-readout": 1.5}

input: Would you kindly share the measured % Release of degrader after 24 h rat for CCCCCCCCCCCN(C(=O)CCCCCCCCCC(=O)O)C(CCC(=O)NCCOCCOCCOCCOCCOCCOCCOCCOCCOCCOCCOCCOCCC(=O)N(CC)CC(=O)OC(C)(C)c1ccc(C(=O)Nc2cc(F)cc(-c3ncnc4[nH]c(-c5ccc(CCN6CCC7(CC6)CCN(C(=O)c6ccc(OC)c(N8CCC(=O)NC8=O)c6)CC7)cc5)cc34)c2C)c(F)c1)C(=O)O (stereo not drawn) ?
output: 2

input: Would you kindly share the measured % Release of degrader after 24 h rat for CCCCCCCCCCCN(C(=O)CCCCCCCCCC(=O)O)C(CCC(=O)NCCOCCOCCOCCOCCOCCOCCOCCOCCOCCOCCOCCOCCC(=O)NCc1ccc(CC(=O)OC(C)(C)c2ccc(C(=O)Nc3cc(F)cc(-c4ncnc5[nH]c(-c6ccc(CCN7CCC8(CC7)CCN(C(=O)c7ccc(OC)c(N9CCC(=O)NC9=O)c7)CC8)cc6)cc45)c3C)c(F)c2)cc1)C(=O)O (stereo not drawn) ?
output: 1.1

====

experiment: BTK FAC plasma stability assay, dog plasma; format: in vitro ADME; conditions: read-out: Plasma stability (h) dog (converted)
Form field: half-life at 5 µM (one value per entry).
Write the answer as a number in h, unit excluded.

input: Would you kindly share the measured half-life at 5 µM for CCCCCCCCCCCN(C(=O)CCCCCCCCCC(=O)O)[C@@H](CCC(=O)NCC(=O)O[C@H]1CN(C(=O)Nc2cc(F)cc(-c3ncnc4[nH]c(-c5ccc(CCN6CCC7(CC6)CCN(C(=O)c6ccc(OC)c(N8CCC(=O)NC8=O)c6)CC7)cc5)cc34)c2C)C[C@@H]1CC(C)C)C(=O)O [Example A31] ?
output: 33.6

input: Would you kindly share the measured half-life at 5 µM for CCCCCCCCCCCN(C(=O)CCCCCCCCCC(=O)O)[C@@H](CCC(=O)N(CCNC(=O)CCOCCOCCOCCOCCOCCOCCOCCOCCOCCOCCOCCOC)CC(=O)OC(C)(C)c1ccc(C(=O)Nc2cc(F)cc(-c3ncnc4[nH]c(-c5ccc(CCN6CCC7(CC6)CCN(C(=O)c6ccc(OC)c(N8CCC(=O)NC8=O)c6)CC7)cc5)cc34)c2C)c(F)c1)C(=O)O [Example A37] ?
output: 44.7

input: Would you kindly share the measured half-life at 5 µM for CCCCCCCCCCCN(C(=O)CCCCCCCCCC(=O)O)[C@@H](CCC(=O)NCC(=O)OC(C)(C)c1ccc(C(=O)Nc2cc(F)cc(-c3ncnc4[nH]c(-c5ccc(CCN6CCC7(CC6)CCN(C(=O)c6ccc(OC)c(N8CCC(=O)NC8=O)c6)CC7)cc5)cc34)c2C)c(F)c1)C(=O)O [Example A6] ?
output: 12.7

====

assay: In vivo pharmacokinetic study in mice (i.v. or s.c.), FAC and payload in blood; design: species or system mouse; details: male, C57/B16, whole blood, iv; API i.v., species taken as mouse; listed as note (1 umol/kg), head 10 umol/kg; read-out: Payload AUC-uM.h (unconjugated degrader dosed, first payload cell)
assay-readout: AUC (µM·h)
Write the answer as a number in µM·h, unit excluded.

input: Would you kindly share the measured AUC for COc1ccc(C(=O)N2CCC3(CCN(CCc4ccc(-c5cc6c(-c7cc(F)cc(NC(=O)c8ccc(C(C)(C)O)cc8F)c7C)ncnc6[nH]5)cc4)CC3)CC2)cc1N1CCC(=O)NC1=O ?
output: 8.2

====

experiment: BTK FAC plasma stability assay, PBS buffer arm; type: physicochemical; conditions: 24 h
assay-readout: % Release of degrader after 24 h PBS (%)
Write the answer as a number in %, unit excluded.

Here are 5 compounds together with their reported answers.
{"compound": "COc1ccc(C(=O)N2CCC3(CCN(CCc4ccc(-c5cc6c(-c7cc(F)cc(NC(=O)c8ccc(C(C)(C)OC(=O)CNC(=O)CCOCCOCCOCCOCCOCCOCCOCCOCCOCCOCCOCCOCCNC(C)=O)cc8F)c7C)ncnc6[nH]5)cc4)CC3)CC2)cc1N1CCC(=O)NC1=O [Example A33]", "% Release of degrader after 24 h PBS / %": 4.8}
{"compound": "CCCCCCCCCCCN(C(=O)CCCCCCCCCC(=O)O)C(CCC(=O)NCCOCCOCCOCCOCCOCCOCCOCCOCCOCCOCCOCCOCCC(=O)NCC(=O)OC(C)(C)c1ccc(C(=O)Nc2cc(F)cc(-c3ncnc4[nH]c(-c5ccc(CCN6CCC7(CC6)CCN(C(=O)c6ccc(OC)c(N8CCC(=O)NC8=O)c6)CC7)cc5)cc34)c2C)c(F)c1)C(=O)O (stereo not drawn) [Example A1]", "% Release of degrader after 24 h PBS / %": 1}
{"compound": "CCCCCCCCCCCN(C(=O)CCCCCCCCCC(=O)O)C(CCC(=O)NCCOCCOCCOCCOCCOCCOCCOCCOCCOCCOCCOCCOCCC(=O)N(CC)CC(=O)OC(C)(C)c1ccc(C(=O)Nc2cc(F)cc(-c3ncnc4[nH]c(-c5ccc(CCN6CCC7(CC6)CCN(C(=O)c6ccc(OC)c(N8CCC(=O)NC8=O)c6)CC7)cc5)cc34)c2C)c(F)c1)C(=O)O (stereo not drawn) [Example A13]", "% Release of degrader after 24 h PBS / %": 1.4}
{"compound": "CCCCCCCCCCCN(C(=O)CCCCCCCCCC(=O)O)C(CCC(=O)NCCOCCOCCOCCOCCOCCOCCOCCOCCOCCOCCOCCOCCC(=O)NCC(=O)NCn1c(-c2ccc(CCN3CCC4(CC3)CCN(C(=O)c3ccc(OC)c(N5CCC(=O)NC5=O)c3)CC4)cc2)cc2c(-c3cc(F)cc(NC(=O)c4ccc(C(C)(C)O)cc4F)c3C)ncnc21)C(=O)O (stereo not drawn) [Example A38]", "% Release of degrader after 24 h PBS / %": 0.2}
{"compound": "CCCCCCCCCCCN(C(=O)CCCCCCCCCC(=O)O)C(CCC(=O)NCCOCCOCCOCCOCCOCCOCCOCCOCCOCCOCCOCCOCCC(=O)N[C@@H](C)C(=O)OC(C)(C)c1ccc(C(=O)Nc2cc(F)cc(-c3ncnc4[nH]c(-c5ccc(CCN6CCC7(CC6)CCN(C(=O)c6ccc(OC)c(N8CCC(=O)NC8=O)c6)CC7)cc5)cc34)c2C)c(F)c1)C(=O)O (stereo partly drawn) [Example A16]", "% Release of degrader after 24 h PBS / %": 2}

Now examine the next entry.
input: Would you kindly share the measured % Release of degrader after 24 h PBS for CCCCCCCCCCCN(C(=O)CCCCCCCCCC(=O)O)[C@@H](CCC(=O)NCCOCCOCCOCCOCCOCCOCCOCCOCCOCCOCCOCCOCCC(=O)NCCCC(=O)OC(C)(C)c1ccc(C(=O)Nc2cc(F)cc(-c3ncnc4[nH]c(-c5ccc(CCN6CCC7(CC6)CCN(C(=O)c6ccc(OC)c(N8CCC(=O)NC8=O)c6)CC7)cc5)cc34)c2C)c(F)c1)C(=O)O [Example A27] ?
output: 0.3
